- measurement description: Primary qHTS for delayed death inhibitors of the malarial parasite plastid, 48 hour incubation
- condition: P. falciparum luciferase growth in erythrocytes; series mostly up to 28.7 µM
- From the text: The goal of this screen is to discover new antimalarial compounds that act by inhibiting the development of the apicoplast in the malarial parasite Plasmodium falciparum. […] We have developed a cell-based assay that measures parasite growth based on the expression of an integrated copy of a firefly luciferase reporter. […] Growth inhibition is detected by a decrease in luciferase activity. […]
Screen size: about 310,000 compounds; about 18,000 (5.8%) were called active. Another 22% or so got no clear call; they are omitted. Calls come from the whole dose curve; as a rule, active = well fitted inhibition curve with a large enough effect; inconclusive = small, poorly fitted or top-dose-only effect, or another doubt; inactive = no such curve, though single readings can be large or run the other way. The sample holds actives, similar compounds and a random draw of the others, so the mix is not that of the screen.
Hi there, use one of these labels in your reply, thanks! True (active), False (inactive)

Sample answers from the record:
molecule: Cc1cc(NC(=O)Nc2c[nH]c(=O)[nH]c2=O)ccc1Br
discrete label: False
//
molecule: CCCCC(=O)Nc1nc(C)c(-c2csc(Nc3ccc(Cl)cc3)n2)s1
discrete label: True
//
molecule: Cc1nc(NC(=O)c2cccc(Cl)c2)sc1-c1csc(Nc2cccc(Cl)c2)n1
discrete label: True
//
molecule: COc1ccc(N2CCN(C(=O)Cn3cnc4sc(C)c(S(=O)(=O)N5CCOCC5)c4c3=O)CC2)cc1
discrete label: False
//
molecule: Cc1ccc(N2CC(C(=O)Nc3cc(Cl)ccc3-n3cncn3)CC2=O)cc1 (stereo unspecified)
discrete label: False

Short answer needed: outcome of this test for `CCCCN(C)CCC(=O)Nc1ccc(Cl)cc1` ?
False

###

- measurement description: Primary qHTS for delayed death inhibitors of the malarial parasite plastid, 48 hour incubation
- condition: P. falciparum luciferase growth in erythrocytes; series mostly up to 28.7 µM
About 18,000 (5.8%) of roughly 310,000 compounds were called active. About 22% were inconclusive and are not listed. Calls come from the whole dose curve; as a rule, active = well fitted inhibition curve with a large enough effect; inconclusive = small, poorly fitted or top-dose-only effect, or another doubt; inactive = no such curve, though single readings can be large or run the other way. The list comes from a sample in which actives are over-represented; it also holds close analogues and randomly drawn compounds.
Hi there, use one of these labels in your reply, thanks! 1 for active, 0 for inactive

Sample answers from the record:
molecule: CC(=O)Nc1ccc(S(=O)(=O)N2CCN(CCCOc3cc(C)ccc3C)CC2)cc1
discrete label: 1

molecule: COc1cc(F)c(C2=CC(=O)CC(C)(C)C2)cc1F
discrete label: 0

molecule: COc1ccc(C(=O)COC(=O)CNC(=O)c2cccs2)cc1Br
discrete label: 0

Short answer needed: outcome of this test for `Cc1ccc(C)c(S(=O)(=O)N2CCN(CC(=O)Nc3ccc([N+](=O)[O-])cc3)CC2)c1` ?
0

Short answer needed: outcome of this test for O=C(NC1CCC(O)CC1)c1ccccc1OCc1ccc(F)cc1 (configuration not stated) ?
0

Short answer needed: outcome of this test for `O=C(CNC(=O)c1cccs1)N/N=C/c1cccc(Br)c1` ?
0

Short answer needed: outcome of this test for `Cc1cc(C(=O)COC(=O)c2cccs2)c(C)n1-c1c(C)n(C)n(-c2ccccc2)c1=O` ?
0

Short answer needed: outcome of this test for `CCn1c(=O)c2ccccc2n(CC(=O)N2CCCc3ccccc32)c1=O` ?
0

Short answer needed: outcome of this test for `COc1ccc(Cc2nnc(NC(=O)c3cc(OC)c(OC)c(OC)c3)s2)cc1OC` ?
0

Short answer needed: outcome of this test for `COc1ccc(-n2c(C)cc(C(=O)COC(=O)c3cc(OC)c(OC)cc3NC(=O)c3cccs3)c2C)cc1` ?
1

Short answer needed: outcome of this test for `COc1ccc(NC(=O)CSc2nc(SC)ns2)c(OC)c1` ?
0

Short answer needed: outcome of this test for `CCc1cccc(CC)c1NC(=O)COc1ccccc1C(=O)c1cc(C#N)c(=O)n(C2CCCCC2)c1` ?
1

Short answer needed: outcome of this test for `CC(=O)Nc1ccc(S(=O)(=O)N2CCN(S(=O)(=O)c3cccs3)CC2)cc1` ?
0

Short answer needed: outcome of this test for CC1(C)CC(=O)C2=C(C1)Nc1cc(C(=O)c3ccccc3)ccc1NC2c1ccccn1 (configuration not stated) ?
0

Short answer needed: outcome of this test for `CC1(C)CC(=O)C(C2=NC(C)(C)Cc3ccccc32)=C(O)C1` ?
0

Short answer needed: outcome of this test for `CC1(C)CC(=O)C=C(c2ccc(Cl)c(C(F)(F)F)c2)C1` ?
1

Short answer needed: outcome of this test for CC(C)(C)c1nc(NCC2CCCO2)c2nnn(Cc3ccccc3)c2n1 (configuration not stated) ?
0

Short answer needed: outcome of this test for `CCOc1ccc(OCC)c(NC(=O)CN(C)S(=O)(=O)c2cccc3nsnc23)c1` ?
1

Short answer needed: outcome of this test for `Cc1ccc(Cn2nnc3c(=O)n(CC(=O)N4CCCCC4)cnc32)cc1` ?
0

###

- measurement description: Primary qHTS for delayed death inhibitors of the malarial parasite plastid, 48 hour incubation
- condition: P. falciparum luciferase growth in erythrocytes; series mostly up to 28.7 µM
Out of some 310,000 compounds screened, about 18,000 (5.8%) were called active. Inconclusive results (about 22%) are left out. The call rests on the fitted dose curve; in most records, active means well fitted inhibition curve with a large enough effect; inconclusive means small, poorly fitted or top-dose-only effect, or another doubt; inactive means no such curve, though single readings can be large or run the other way. The full list was thinned out, with actives kept by preference.
Hi there, use one of these labels in your reply, thanks! active, inactive

Sample answers from the record:
compound: NC(=O)c1c(NC(=O)c2ccccc2)sc2c1CCCC2
discrete label: inactive
//
compound: CC(C)c1nnc(NC(=O)CCC(=O)N2CCN(c3cccc(Cl)c3)CC2)s1
discrete label: inactive
//
compound: O=C1N=C(N2CCc3ccccc3C2)S/C1=C\c1ccc(O)cc1
discrete label: active
//
compound: CC1=NC2(CCCc3c2no[n+]3[O-])N(O)C1(C)C (stereo unspecified)
discrete label: active
//
compound: Cc1ccc(C(=O)c2c(NC(=O)c3ccncc3)sc3c2CCCC3)cc1
discrete label: active

Short answer needed: outcome of this test for `Cc1ccc(NC(=O)c2c(NC(=O)CCC(=O)O)sc3c2CCCCC3)cc1` ?
inactive

###

- measurement description: Primary qHTS for delayed death inhibitors of the malarial parasite plastid, 48 hour incubation
- condition: P. falciparum luciferase growth in erythrocytes; series mostly up to 28.7 µM
Screen size: about 310,000 compounds; about 18,000 (5.8%) were called active. Roughly 22% stayed inconclusive and do not appear here. The call rests on the fitted dose curve; in most records, active means well fitted inhibition curve with a large enough effect; inconclusive means small, poorly fitted or top-dose-only effect, or another doubt; inactive means no such curve, though single readings can be large or run the other way. Only a selection was taken, and actives are over-represented in it overall.
Hi there, use one of these labels in your reply, thanks! yes (1) = active, no (0) = inactive

molecule: Cn1c(=O)c2c(ncn2CCc2ccccc2)n(C)c1=O
discrete label: no (0)
//
molecule: Cc1cccc(C)c1NC(=S)N1CCCCCC1
discrete label: no (0)
//
molecule: C=CCOc1ccc(/C=C/C(=O)OCC(=O)NC2CCCCCC2)cc1
discrete label: no (0)
//
molecule: O=C(CC1CCCCC1)Nc1c2c(nn1-c1ccc(F)cc1)CS(=O)(=O)C2
discrete label: no (0)
//
molecule: Cc1cccc(OCC(=O)NC(=S)Nc2ccccc2N2CCOCC2)c1
discrete label: no (0)
//
molecule: O=C(NC1CC1)C(Cc1ccccc1)NS(=O)(=O)c1ccccc1F (stereo not drawn)
discrete label: no (0)
//
molecule: COc1ccc(-n2c(-c3ccccc3)nc3ccccc3c2=O)cc1
discrete label: no (0)
//
molecule: Cc1ccc(N2C(=O)C(Cc3ccccc3)NC2=S)cc1 (stereo not drawn)
discrete label: no (0)
//
molecule: COc1cc(C(=O)NCC(=O)N2CC=C(c3ccccc3)CC2)cc(OC)c1OC
discrete label: no (0)
//
molecule: CC1=CCC2C(=O)N(c3cccc(C(=O)NC(C)c4ccccc4)c3)C(=O)C2C1 (stereo not drawn)
discrete label: no (0)

Short answer needed: outcome of this test for `COc1ccc(N(C(=O)c2cccnc2)S(=O)(=O)c2ccc3c(c2)n(C)c(=O)n3C)cc1` ?
no (0)

Short answer needed: outcome of this test for COc1ccc(NC(=O)c2cccc3c2C(=O)N(CC2CCCO2)C3)cc1OC (stereo not drawn) ?
no (0)

Short answer needed: outcome of this test for `CCCCCCSc1ccc([C@@H]2[C@@H]3C(=O)N(CC)C(=O)[C@@H]3[C@]3(C(=O)OC)CCCCN23)cc1OC` ?
yes (1)

###

- measurement description: Primary qHTS for delayed death inhibitors of the malarial parasite plastid, 48 hour incubation
- condition: P. falciparum luciferase growth in erythrocytes; series mostly up to 28.7 µM
- Description: The goal of this screen is to discover new antimalarial compounds that act by inhibiting the development of the apicoplast in the malarial parasite Plasmodium falciparum. […] We have developed a cell-based assay that measures parasite growth based on the expression of an integrated copy of a firefly luciferase reporter. […] Growth inhibition is detected by a decrease in luciferase activity. […]
Out of some 310,000 compounds screened, about 18,000 (5.8%) were called active. Another 22% or so got no clear call; they are omitted. Calls follow the shape of the dose curve; as a rule, active = well fitted inhibition curve with a large enough effect; inconclusive = small, poorly fitted or top-dose-only effect, or another doubt; inactive = no such curve, though single readings can be large or run the other way. The list comes from a sample in which actives are over-represented; it also holds close analogues and randomly drawn compounds.
Hi there, use one of these labels in your reply, thanks! T for active, F for inactive

Sample answers from the record:
compound: Cc1ccc(Cn2c(SCC(=O)N/N=C/c3ccccc3OCC(=O)O)nc3ccccc32)cc1
discrete label: F
--
compound: Cc1cccn2c(=O)c(/C=C(\C#N)S(=O)(=O)c3ccc(Cl)cc3)c(N3CCC(C(N)=O)CC3)nc12
discrete label: F
--
compound: COC(=O)c1ccc(-c2c(-c3ccccc3)ncc3cc(OC)c(OC)cc23)cc1
discrete label: F

Short answer needed: outcome of this test for `O=C(CN1CCN(S(=O)(=O)c2ccc(F)cc2)CC1)NC1CC1` ?
F

Short answer needed: outcome of this test for CC(C)c1ccc(OCC(O)Cn2cnc3ccccc32)cc1 (configuration not stated) ?
T

Short answer needed: outcome of this test for O=C(c1[nH]ncc1-c1ccc(Cl)cc1)C1CO1 (configuration not stated) ?
T

Short answer needed: outcome of this test for `CCOC(=O)c1cc(=O)c2ccc(OCc3ccccc3)cc2o1` ?
F

Short answer needed: outcome of this test for O=C1Nc2cc(C(=O)N3CCN(c4ccc(F)cc4)CC3)ccc2NC1CSCc1cccc(F)c1 (configuration not stated) ?
F

Short answer needed: outcome of this test for `Cc1cccn2c(=O)c3cc(C(=O)NC4CCCCC4)sc3nc12` ?
F

Short answer needed: outcome of this test for `Cc1c(CCC(=O)O)c(=O)oc2cc(OCc3ccc(Br)cc3)ccc12` ?
F

Short answer needed: outcome of this test for `CCCc1nc2c(C)cc(-c3nc4ccccc4n3C)cc2n1Cc1ccc(-c2ccccc2C(=O)O)cc1` ?
T

Short answer needed: outcome of this test for O=C(OCc1ccc([N+](=O)[O-])cc1)C1CC(=O)N(Cc2ccccc2Cl)C1 (configuration not stated) ?
F

Short answer needed: outcome of this test for `CCCCCc1ccc(-c2ccc(OCC)cc2)nc1` ?
F

Short answer needed: outcome of this test for O=C(O)C1CCCCC1C(=O)N1CCN(S(=O)(=O)c2ccc(F)cc2)CC1 (configuration not stated) ?
F

Short answer needed: outcome of this test for O=C(COc1ccc2ccc(=O)oc2c1)NCC(O)c1ccccc1 (configuration not stated) ?
F

Short answer needed: outcome of this test for `O=C(c1nnc(-c2ccc(Cl)cc2)o1)C1CCCC1` ?
F

Short answer needed: outcome of this test for CC(=O)OC(COc1ccc(F)cc1)Cn1cnc2ccccc21 (configuration not stated) ?
F

Short answer needed: outcome of this test for `Cc1c(C)c(C)c(S(=O)(=O)NCCc2ccccn2)c(C)c1C` ?
F

Short answer needed: outcome of this test for Cc1cc(C)cc(Oc2nc3c(C)cccn3c(=O)c2/C=C(\C#N)C(=O)NC2CCS(=O)(=O)C2)c1 (configuration not stated) ?
T

Short answer needed: outcome of this test for CC(C)c1ccc(OCC(O)CN2CCN(c3ccccn3)CC2)cc1 (configuration not stated) ?
F

Short answer needed: outcome of this test for `O=S(=O)(c1ccc(F)cc1)N1CCN(C(=S)NCc2ccco2)CC1` ?
T

Short answer needed: outcome of this test for `COCc1ccc(CN2CCC(Oc3ccc(C(=O)NCc4ccccn4)cc3)CC2)o1` ?
F
